Cited source for all entries: paper PMC12461331

Kindly supply the reported nHill values for the records listed here.
- Tested on: SARS-CoV-2
- measurement-parameters: Hela-ACE2 % Positive SARS-CoV-2, curve fit
Kindly provide the number alone.

Q) # query: nHill of entry CCC(CC)COC(=O)[C@H](C)N[P@](=O)(OC[C@H]1O[C@@](C#N)(c2ccc3c(N)ncnn23)[C@H](O)[C@@H]1O)Oc1ccccc1 [Remdesivir, reference compound]
A) 1.898

Q) Do the same for C[C@H](c1cccc2ccccc12)N1CCC(C(=O)NCc2ccc(Cl)cc2)CC1 please
A) 4

Q) Do the same for CC(c1cccc2ccccc12)N1CCC(C(=O)NCc2ccc(Cl)cc2)CC1 (stereo not shown) please
A) 3.857

Q) Do the same for Cc1cccc(/C=N/Nc2cc(N3CCOCC3)nc(OCCc3ccccn3)n2)c1 [Apilimod, reference compound] please
A) 1.796

###

Kindly supply the reported Sinf values for the records listed here.
- System: SARS-CoV-2
- measurement-parameters: Hela-ACE2 % Positive SARS-CoV-2, curve fit
Counter-ions that a name gives are not always drawn.
Kindly provide the number alone.

Q) # query: Sinf of entry CCC(CC)COC(=O)[C@H](C)N[P@](=O)(OC[C@H]1O[C@@](C#N)(c2ccc3c(N)ncnn23)[C@H](O)[C@@H]1O)Oc1ccccc1 [Remdesivir, reference compound]
A) -99.8572

Q) Do the same for Cc1ccc(CNC(=O)C2CCN([C@H](C)c3cccc4ccccc34)CC2)cc1 please
A) -100

Q) Do the same for COc1ccc(CNC(=O)C2CCN(C(C)c3cccc4ccccc34)C2)cc1 (stereo not drawn) please
A) -100

Q) Do the same for Cc1ccc(CNC(=O)C2CCN([C@@H](C)c3cccc4ccccc34)CC2)cc1 (stereo in doubt) please
A) -100

Q) Do the same for COc1ccc(C[C@H](N)C(=O)N[C@H]2[C@@H](O)[C@H](n3cnc4c(N(C)C)ncnc43)O[C@@H]2CO)cc1 [Puromycin dihydrochloride, reference compound] please
A) -99.6259

Q) Do the same for Cc1cccc(/C=N/Nc2cc(N3CCOCC3)nc(OCCc3ccccn3)n2)c1 [Apilimod, reference compound] please
A) -96.2358

Q) Do the same for C[C@@H](c1cccc2ccccc12)N1CCC(C(=O)NCc2ccncc2)CC1 (racemic) please
A) -100

Q) Do the same for C[C@H](c1cccc2ccccc12)N1CCC(C(=O)NCc2ccc(Cl)cc2)CC1 please
A) -100

Q) Do the same for CC(c1cccc2ccccc12)N1CCC(C(=O)NCc2ccc(Cl)cc2)CC1 (stereo not drawn) please
A) -100

###

- System: SARS-CoV-2
- measurement-parameters: Hela-ACE2 % Positive SARS-CoV-2, curve fit
Counter-ions that a name gives are not always drawn.
readout: nHill
Kindly provide the number alone.

Q) # query: nHill of entry COc1ccc(C[C@H](N)C(=O)N[C@H]2[C@@H](O)[C@H](n3cnc4c(N(C)C)ncnc43)O[C@@H]2CO)cc1 [Puromycin dihydrochloride, reference compound]
A) 4

Q) Do the same for C[C@@H](c1cccc2ccccc12)N1CCC(C(=O)NCc2ccncc2)CC1 (racemic) please
A) 4

Q) Do the same for Cc1ccc(CNC(=O)C2CCN([C@@H](C)c3cccc4ccccc34)CC2)cc1 (stereo in doubt) please
A) 2.548

Q) Do the same for COc1ccc(CNC(=O)C2CCN(C(C)c3cccc4ccccc34)C2)cc1 (centres unmarked) please
A) 2.951

Q) Do the same for Cc1ccc(CNC(=O)C2CCN([C@H](C)c3cccc4ccccc34)CC2)cc1 please
A) 1.703
